procedure.details: Rat metabolite profiling (LC-MS with radioactivity detection)
Type: in vivo, Sprague-Dawley rats
settings: rat, in vivo, iv, 15 mg/kg
*1 amine or outer side, *2 acyl side, *3 side chain or, on linkers, in order; H or OH if unused. Where a SMILES comes first, the peptide text is derived from it. Bridges are numbered along the chain shown (N, C = ends). [ ]: non-standard residue; d: D form. The star is where a group is joined. Orn(4R-OH,5R-OCH2CH2NMe3+) = C[N+](C)(C)CCO[C@@H](N[*:3])[C@H](O)C[C@H](N[*:1])C(=O)[*:2]; hTyr(3S-OH,4S-OH) = N[C@H](C(=O)O)[C@H](O)[C@@H](O)c1ccc(O)cc1; X1 = CC(O)CCCOc1ccc(-c2ccc(-c3ccc(C(=O)*)cc3)cc2)cc1; Pro(3S-OH,4S-Me) = C[C@H]1CN[C@H](C(=O)O)[C@H]1O; Hyp = O=C(O)[C@@H]1C[C@@H](O)CN1
readout: Share of total recovered radioactivity in urine

Q. Give the measured Share of total recovered radioactivity in urine for CC(O)CCCOc1ccc(-c2ccc(-c3ccc(C(=O)N[C@H]4C[C@@H](O)[C@@H](OCC[N+](C)(C)C)NC(=O)[C@@H]5[C@@H](O)[C@@H](C)CN5C(=O)[C@H]([C@@H](C)O)NC(=O)[C@H]([C@H](O)[C@@H](O)c5ccc(O)cc5)NC(=O)[C@@H]5C[C@@H](O)CN5C(=O)[C@H]([C@@H](C)O)NC4=O)cc3)cc2)cc1 (stereo partly drawn) [4’-hydroxylpentyl rezafungin] (X1-[Orn(4R-OH,5R-OCH2CH2NMe3+)]T[Hyp][hTyr(3S-OH,4S-OH)]T[Pro(3S-OH,4S-Me)]; lactam 1-C)
A. 62%
